target: T1, VEGFR-2-Fc (UniProt P35968 20-322); experiment: receptor-Fc IP
T1 construct: domain: first 3 Ig domains; conditioned supernatant of 293T cells; also called VEGFR-2-Fc fusion protein; not shown: Fc fragment of the pIg vector
T1 sequence (P35968 20-322): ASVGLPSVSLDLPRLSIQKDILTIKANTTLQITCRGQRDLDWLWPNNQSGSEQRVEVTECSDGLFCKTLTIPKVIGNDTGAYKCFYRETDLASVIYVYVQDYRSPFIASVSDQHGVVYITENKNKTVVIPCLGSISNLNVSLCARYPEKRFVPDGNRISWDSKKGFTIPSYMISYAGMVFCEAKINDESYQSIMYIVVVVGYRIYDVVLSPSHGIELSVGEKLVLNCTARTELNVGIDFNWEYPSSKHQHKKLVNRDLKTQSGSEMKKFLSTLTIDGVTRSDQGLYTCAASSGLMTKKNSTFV
Test Readout: binding result

81-1 (ligand) AHYNTEILKFMDVYQRSYCHPIETLVDIFQEYPDEIEYIFKPSCVPLMRCGGCCNDEGLECVPTEESNITMQIMRIKPHQGQHIGEMSFLQHNKCECRPKKD
binds
61-3 (ligand) GQNHHEVVKFMDVYQRSYCHPREVCIDVGKEYPDEIEYIFKPSCVPLMRCGGCCNSEGLQCVPTEESNITMQIMRIKPHQGQHIGEMSFLQHNKCECRPKKD
no binding
71-2 (ligand) GQNHHEVVKSIDNEWRKTQCMPREVCIDVGKEYPDEIEYIFKPSCVPLMRCGGCCNDEGLECMNTSTSYLSKTLFEIKPHQGQHIGEMSFLQHNKCECRPKKD
no binding
51-13 (ligand) AHYNTEILKSIDNEWRKTQCMPIETLVDIFQEYPDEIEYIFKPSCVPLMRCGGCCNDEGLECVPTEESNITMQIMRITVPLSQGPKPVTISFANHTSCRCMSKLD
no binding
